This listing pairs compounds with measured half-life.
assay: PK, intravenous administration; type: in vivo; conditions: rat, plasma, male Sprague Dawley rats, dose about 1 mg/kg
Only the number, expressed in min, is required.

Record excerpt, results attached:
In [3]: df
Out[3]:
                                   compound  property_label  scale_unit  obs_value
0  CCN(CC)CCCS(=O)(=O)c1nnc(Nc2c(-c3ccnc(OC)c3)ccc3c2CCC3)[nH]1       half-life         min         54
1  CN(C)CCCS(=O)(=O)c1nnc(Nc2c3c(cc4c2CCC4)CCC3)[nH]1       half-life         min         48
2  CN1CCC2(CCN(S(=O)(=O)c3nnc(Nc4c5c(cc6c4CCC6)CCC5)[nH]3)CC2)C1       half-life         min        116
3  COc1cc(-c2cc(F)cc(C(C)C)c2Oc2nnc(S(=O)(=O)N3CCC4(CCN4C)CC3)[nH]2)ccn1       half-life         min       25.6
4  CN1CCC2(C1)CN(S(=O)(=O)c1nnc(Nc3c(-c4ccnc(OC(F)F)c4)ccc4c3CCO4)[nH]1)C2       half-life         min       11.4
5  COc1cc(-c2ccc3c(c2Nc2nnc(S(=O)(=O)N4CC5(CCN(C)C5)C4)[nH]2)CCO3)ccn1       half-life         min         15
6  CC(C)N1CC(S(=O)(=O)c2nnc(Nc3c4c(cc5c3CCC5)CCC4)[nH]2)C1       half-life         min         24
7  CC(C)n1ccc(S(=O)(=O)c2nnc(Nc3c4c(cc5c3CCC5)CCC4)[nH]2)n1       half-life         min       35.7

Enquiry: Name the recorded half-life for CN(C)C1CCCN(S(=O)(=O)c2nnc(Nc3c4c(cc5c3CCC5)CCC4)[nH]2)CC1 (stereo not drawn) .
Return: 212

Enquiry: Here is the next compound: CN(C)CC1CCN(S(=O)(=O)c2nnc(Nc3c4c(cc5c3CCC5)CCC4)[nH]2)C1 (stereo not drawn)
Return: 156

Enquiry: Here is the next compound: COc1cc(-c2cc(F)cc(C(C)C)c2Cc2nnc(S(=O)(=O)N3CCC(CN(C)C)C3)[nH]2)ccn1 (stereo not drawn)
Return: 24

Enquiry: Here is the next compound: CNCCCS(=O)(=O)c1nnc(Nc2c3c(cc4c2CCC4)CCC3)[nH]1
Return: 78
